- Test system: IGROV-1
- Test name: NCI tumour cell line growth inhibition, 48 h
Calls of active or inactive are those of the source. Cut-off read from the data, not from the text of the source: active = GI50 up to about 1.1 µM and inactive = higher.
Classes to choose from: true (active), false (inactive)

// known answers, use as guide
CC1(C)CNC(=O)C2(CCCO2)CNC(C)(C)CNC(=O)C2(CCCO2)CN1 (stereo unspecified)
false
CN(O)C(=O)/C=C/c1ccc(OCc2cccc(Cl)c2)cc1
false
O=c1[nH]nc(Nc2ccc(Cl)cc2)c2nnn(-c3ccc([N+](=O)[O-])cc3)c12
false
[O-][S+]1c2ccccc2N=C(c2ccc3ccccc3c2)CC1c1ccccc1F (stereo unspecified)
false
CCCCCCCCCCCCCCCCCCNc1ccn(C2OC(CO)C(OP(=O)(O)OCC(O)COP(=O)(O)OCC3OC(n4cc(F)c(NCCCCCCCCCCCCCCCCCC)nc4=O)CC3O)C2O)c(=O)n1 (stereo unspecified)
false
CCCC(=O)Nc1cc(/C=C/C(=O)N2C[C@H]3C[C@@]34C2=CC(=O)c2[nH]cc(C)c24)n(C)c1
true
CC1=CC(O)CC(C)(C)C1/C=C/C(C)=C/C=C/C(C)=C/C=C/C=C(C)/C=C/C=C(C)/C=C/C1=C(C)CC(O)CC1(C)C (stereo unspecified)
false
CC1=N/C(=C\c2cccc([N+](=O)[O-])c2)C(=O)O1
false
O=C(Nc1ccc(Cl)cc1)NS(=O)(=O)c1coc2cc(F)ccc2c1=O
false
CC(C)=CCc1c2c(c3occ(-c4ccc(O)cc4)c(=O)c3c1O)CC(C(C)(C)O)O2 (stereo unspecified)
false

[Q] For Cc1nc2c(nc1Cl)nc(Oc1ccc(Cl)cc1)c1ccccc12 , what call appears in the results of this test?
[A] false

[Q] Write down the call the test reported for this compound. Item: Cc1ccc2[nH]c3c(c2c1)CCC/C3=N/N=C(N)N
[A] false

[Q] Test call, this compound: O=C(/C=C/c1ccccc1)CCN1CCCCC1
[A] false

[Q] Outcome? CC1=CC(C/C(C)=C/COc2ccc3ccc(=O)oc3c2)OC1=O (stereo unspecified)
[A] false

[Q] What did the test return for N/C(=N\c1ccc(Cl)cc1)NS(=O)(=O)c1ccc(S(=O)(=O)c2ccccc2)s1 ?
[A] false

[Q] Hi team, can someone confirm the assay call for O=C1CCN2C(=Nc3cccc4cccc2c34)N1 ?
[A] false

====

- Test system: OVCAR-3
- Test name: NCI tumour cell line growth inhibition, 48 h
Active and inactive are the calls of the source. No stated cut-off is given here; in the data, active = GI50 up to about 1.1 µM and inactive = higher.
Kindly supply the reported GI50 values for the records listed here.

Recorded results for 5 compounds are shown here.
CCCC(=O)Nc1cc(/C=C/C(=O)N2C[C@H]3C[C@@]34C2=CC(=O)c2[nH]cc(C)c24)n(C)c1
< 0.0025 µM (active)
CC(C)(C)OC(=O)n1c2ccccc2c2c(=O)nc(N3CCCCC3)sc21
> 100 µM (inactive)
CC(C)(C)OC(=O)C(C1NC(C(=O)O)C(C)(C)S1)N1C(=O)c2ccccc2C1=O (stereo not given)
> 100 µM (inactive)
CC(C)N(C(=O)C12C3(C(=O)C(C)(C)C)C4C5(C#N)C3C1(C(=O)C(C)(C)C)C5C42C(=O)C(C)(C)C)C(C)C (stereo not given)
> 100 µM (inactive)
COC/C=C\[C@]1(O)CCCC[C@@H]1CC(OC)OC
> 100 µM (inactive)

Below is a list of compounds. For each, state its recorded GI50.
1. CCOC(=O)NC(Nc1ccc(F)c(F)c1)(C(=O)OCC)C(F)(F)F (stereo not given)
2. C=C[C@@]12CCCCC1C/C(=C(/O)OC)C(=O)C2 (stereo not given in full)
3. CCCC(=O)OCC(COC(=O)CCC)OC(=O)CCC [TRIBUTYRIN]

[A]
> 100 µM (inactive)
> 100 µM (inactive)
> 100 µM (inactive)

Give GI50 for each listed item.
1. CC1=NN(c2cccc(Cl)c2)C2(SCC(=O)N2c2nc3ccccc3s2)/C1=C\c1ccc(N(C)C)cc1 (stereo not given)
2. Cc1cc(S(=O)(=O)NC2=NCc3nc4ccccc4n32)c(S)cc1Cl

[A]
1. 48.5 µM (inactive)
2. 19.9 µM (inactive)

====

- Test system: SF-539
- Test name: NCI tumour cell line growth inhibition, 48 h
The source made the active and inactive calls. Rule as the data show it: active = GI50 up to about 1.1 µM and inactive = higher.
Could you please pick one outcome from this set? active, inactive

CCCCCNc1nonc1N
inactive
CC(=O)OC1C(CCl)OC(N=[N+]=[N-])C(OC(C)=O)C1OC(C)=O (stereo not given)
inactive
CCc1c(CNc2ccc(C(=O)NC(CC(=O)O)C(=O)O)cc2)ccc2nc(N)nc(N)c12 (stereo not given)
active

[Q] // param item: CSc1ccc(/C=C2\N=C(c3ccccc3)N(c3nc4c(Cl)cc(Cl)cc4s3)C2=O)cc1 ; yields the recorded call
[A] inactive

[Q] Dear all, I need the recorded test outcome for CCn1c(CCCc2nc3c(=O)n(C)c(=O)n(C)c3[nH]2)nc2c1c(=O)n(C)c(=O)n2C , thank you.
[A] inactive

====

- Test system: OVCAR-8
- Test name: NCI tumour cell line growth inhibition, 48 h
Calls of active or inactive are those of the source. No stated cut-off is given here; in the data, active = GI50 up to about 1.1 µM and inactive = higher.
Reported property: GI50

Cc1ccc2nc(N/N=C/c3sccc3C)cc(C)c2c1
> 100 µM (inactive)
O=C1CC2(CCC(O)(c3ccc4ccccc4c3)C(C(=O)c3ccc4ccccc4c3)C2)C(=O)c2ccccc2N1 (stereo unspecified)
> 100 µM (inactive)
C/C=C/[C@@]1(OC(=O)c2ccccc2)C[C@@H]2CCCC[C@@H]21
18.5 µM (inactive)
Cc1nc(N(CCO)CCO)c2sc(=S)n(-c3ccccc3)c2n1
> 100 µM (inactive)
NC(=S)NNC(=S)NC(=O)c1ccco1
> 10 µM (inactive)
NC(C(=O)OC(=O)c1ccccc1)C(=O)OC(=O)c1ccccc1
> 100 µM (inactive)
CCCCCCCCCCCCCCCCOP(=O)([O-])OCC[N+](C)(C)C
25.8 µM (inactive)
O=C(Oc1cncc(Cl)c1)c1cc2ccccc2sc1=O
> 100 µM (inactive)

The following compounds each have a reported value; give each one's GI50.
1. O=C1/C(=C/c2ccccc2S)N=C(c2ccccc2)N1c1ccc2c(c1)Sc1cc(N3C(=O)/C(=C/c4ccccc4S)N=C3c3ccccc3)ccc1N2
2. c1ncc(C23C4C5C6C4C2C6C53)[nH]1 (stereo unspecified)
3. O=c1[nH]nc(Nc2ccc(Cl)cc2)c2nnn(-c3ccc([N+](=O)[O-])cc3)c12
4. CNC(=O)c1cccc2c(Nc3ccc(NS(C)(=O)=O)cc3OC)c3cccc(C)c3nc12
5. COc1cccc(/C=C(/C(=O)O)c2cc(OC)c(OC)c(OC)c2)c1
6. COc1cccc2c1OC(c1ccc(C#N)cc1)C([N+](=O)[O-])=C2 (stereo unspecified)
7. CC(C)(C)C1=CC(=C(c2ccc(-c3c4nc(c(-c5ccc(C(=C6C=C(C(C)(C)C)C(=O)C(C(C)(C)C)=C6)c6cc(C(C)(C)C)c(O)c(C(C)(C)C)c6)cc5)c5ccc([nH]5)c(-c5ccc(C(=C6C=C(C(C)(C)C)C(=O)C(C(C)(C)C)=C6)c6cc(C(C)(C)C)c(O)c(C(C)(C)C)c6)cc5)c5nc(c(-c6ccc(C(=C7C=C(C(C)(C)C)C(=O)C(C(C)(C)C)=C7)c7cc(C(C)(C)C)c(O)c(C(C)(C)C)c7)cc6)c6ccc3[nH]6)C=C5)C=C4)cc2)c2cc(C(C)(C)C)c(O)c(C(C)(C)C)c2)C=C(C(C)(C)C)C1=O

[A]
1: 19.4 µM (inactive); 2: > 100 µM (inactive); 3: 16.2 µM (inactive); 4: 0.333 µM (active); 5: > 100 µM (inactive); 6: 1.25 µM (inactive); 7: > 100 µM (inactive)

[Q] Entry COc1ccc(/C=C2\S/C(=N/Nc3nc(-c4ccccc4)cs3)NC2=O)cc1OC : reported GI50 = ?
[A] 21 µM (inactive)

====

- System: HCC 2998
- Test name: NCI tumour cell line growth inhibition, 48 h
Activity calls are given as the source filed them. Rule as the data show it: active = GI50 up to about 1.1 µM and inactive = higher.
Reported property: GI50

CCCCCN(CCCCC)C(=O)[C@H](CCC(=O)OCc1ccccc1)NC(=O)c1cc2ccccc2[nH]1
> 100 µM (inactive)
c1coc(-c2nccc3c2[nH]c2ccccc23)c1
> 100 µM (inactive)
O=S1(=O)c2ccccc2N(O)C2=NCCN21
> 100 µM (inactive)
CSc1ncc2c(C#N)c3sc4ccccc4n3c(=O)c2n1
> 100 µM (inactive)
O=c1cc(N2CCCC2)[nH]c(=O)n1-c1ccc(Cl)cc1
> 100 µM (inactive)

# context switch: different molecule, same GI50
[Q] Identify the measured GI50 of O=[N+]([O-])c1cc(I)cc(/C=N/NS(=O)(=O)c2ccc(F)cc2)c1O for HCC 2998.
[A] 33 µM (inactive)

====

- Tested on: OVCAR-3
- Test name: NCI tumour cell line growth inhibition, 48 h
Calls of active or inactive are those of the source. Rule as the data show it: active = GI50 up to about 1.1 µM and inactive = higher.
Pick one: Y = active, N = inactive

Take a look at these entries with their results.
Cc1ccc(NC(=O)CCC(=O)C2CC(=O)CCC2=O)cc1C (centres undefined)
N
COC(=O)CC(C)(N[S+]([O-])c1ccc(C)cc1)c1ccccc1 (centres undefined)
N
C/C(=N\Nc1cc(CN2CCCC2)c(-c2ccc(Cl)cc2)nn1)C(=O)O
N

[Q] In this assay, the call recorded for O=C1CCCCCCCCCCOC(=O)CCCCCCCCCCO1 was what?
[A] N

[Q] Hi team, can someone confirm the assay call for C=C1CC(OC)(C(OC)C(=O)N[C@H]2OCO[C@H]3C2O[C@H](C[C@@H](COC)OC)C(C)(C)C3OC)O[C@H](C)[C@@H]1C (some centres undefined) ?
[A] Y

[Q] Look up the recorded call for COC(=O)/C=C(C)/C=C/c1cc(C(C)=O)c(C)o1 in this test.
[A] N

[Q] Recorded call for COC1CC(C)(NC(=O)C(F)(F)F)C2OC(c3ccccc3)OCC2O1 (centres undefined) ?
[A] N

[Q] Hi team, can someone confirm the assay call for CCOC(=O)c1cn(-c2ccc([N+](=O)[O-])cc2)c(=S)n2c1nc1ccccc12 ?
[A] N

[Q] Kindly provide the recorded test outcome for the following molecule: CC(=O)OC1C(=O)C(O)C(C)OC1O[C@@H]1C[C@@]2(C)[C@@H]3CC=C4[C@@H](C[C@H](O)C(=O)C4(C)C)[C@]3(C)C(=O)C[C@]2(C)[C@H]1[C@@](C)(O)C(=O)/C=C/C(C)(C)O (some centres undefined)
[A] N

Where do these numbers come from? They come from ChEMBL document CHEMBL1201862.
